Where do the numbers come from? From ChEMBL document CHEMBL5375962.

Listed here are compounds together with their documented solubility thermodynamic.
assay: Thermodynamic solubility of the compound […] at pH 7.4; type: physicochemical; settings: read-out: Therm_solubility
Enter your answer as a number in µg/mL; do not include the unit.

Some compounds with known solubility thermodynamic results, for comparison:
molecule	solubility thermodynamic (µg/mL)
C[C@H]1CCN1c1nc(-c2cnn(C3CCN(CCO)CC3)c2)cc(C(F)(F)F)c1C#N	38
C[C@H]1CCN1c1nc(-c2cn[nH]c2)cc(C(F)(F)F)c1C#N	3
C[C@H]1CCN1c1nc(-c2cnn(C3CNC3)c2)cc(C(F)(F)F)n1	450
OC[C@H]1CCN1c1nc(-c2cnn(C3CCNCC3)c2)cc(C(F)(F)F)n1	750

Could you now consider this next compound?
### Prompt Quick check: solubility thermodynamic of C[C@H]1CCN1c1nc(-c2cnn(C3CCNCC3)c2)cc(C(F)(F)F)n1 ?
### Response 410
